Experiment: COS7 lysate on small-molecule microarray, probe aHis, 635 nm (AID 1123);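 also: z-score combines 667nm fluorescence intensity with signal-to-noise per printed compound spot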
Conditions: COS7 cell lysate, fluorescence, higher = more signal
Please respond with reported composite z-score for every item in the list.
Give bare numbers.

Take a look at these entries with their results.
# query: composite z-score of entry COc1ccc([Si](C)(C)[C@H]2[C@H](CCn3cc([C@H](O)c4ccccc4)nn3)O[C@@]3(C(=O)N(C)c4ccccc43)[C@@H]2C)cc1
0.476

# input molecule: CC(C)[C@@H](C(=O)O)n1cc(C2(O)CCCCC2)nn1 ; wanted: its composite z-score
0.303

What composite z-score value was documented for this molecule, Cc1ccc(/C=C/C=O)cc1 ?
0.206

I am curious: what composite z-score value has been reported for CN(C)CCCCCCNC(=O)[C@@H]1C[C@@H]2C(=O)N[C@@H](CCCC[N+](C)(C)C)C(=O)N2[C@@H]1c1ccc(O)cc1 ?
0.125

Look up composite z-score: CC[C@@H]1C=C(C(=O)O)[C@H](c2cccc3ccccc23)N1S(=O)(=O)c1ccc(C)cc1
1.58

Quick one: give me composite z-score for each item below, same order please.
1. CC(=O)n1cc(C(O)C2C=CC3C(=O)NC(=O)C3N2Nc2ccccn2)c2ccccc21 (centres undefined)
2. COc1ccc([Si](C)(C)[C@H]2[C@H](CCO)O[C@@]3(C(=O)N(Cc4ccccc4)c4ccc(N5CCCCC5=O)cc43)[C@@H]2C)cc1
3. O=C(CS)NCCCCCNC(=O)[C@@H]1C[C@@H]2C(=O)NCC(=O)N2[C@@H]1c1cccc(OCCO)c1
4. CCN(CC)c1ccc(N2CC=CC34O[C@@H]5C=CCOC(=O)[C@@H]5[C@H]3C(=O)N(CCCCCCO)[C@@H]4C2=O)cc1 (some centres undefined)

[0.688, 0.376, 1.61, 0.922]

* * *

Assay: JC-1 mitochondrial signal, unstimulated adipocytes – cell-based, JC-1 fluorescence, 3T3-L1 adipocytes, 24 h, 100 nL compound, profiling panel (AID 1168)
Conditions: JC-1 mitochondrial fluorescence, higher = more signal, called active from +8 up or from −8 down
Measurement name: z-score
Numbers only.

Given the molecule C=C(CCCC)/C(=C/C[C@H](OC(C)=O)c1ccccc1OCCO)c1cnc2ccccc2c1 , what is its reported z-score?
-1.26

If you can, please state the reported z-score value of O=C(CS)NCCCCCNC(=O)[C@@H]1C[C@@H]2C(=O)NCC(=O)N2[C@@H]1c1cccc(OCCO)c1 .
-0.102

Requested read-out: z-score. Entry: COc1ccc(CCNC(=O)[C@@]2(c3ccc([N+](=O)[O-])cc3)CC(=O)N(CC34CC5CC(CC(C5)C3)C4)[C@@H]2c2ccc(CO)cc2I)cc1
0.1

Continue with the next molecule.
Which z-score is reported for this molecule? C=CCNC(=O)[C@H]1[C@@H]2C(=O)O[C@@H](c3ccccc3)[C@@H](c3ccccc3)N2[C@@H](c2ccc(O)cc2)[C@]12C(=O)Nc1ccc(C#CCCO)cc12
0.651

* * *

Would you mind telling me the reported composite z-score of each entry?
Test system: XIP peptide (Xip251-270)
Assay: compounds binding XIP fragment 251-270 – biochemical, small-molecule microarray, fluorescence 635/667 nm, 0.5 µg/mL protein, primary screen (AID 1183)
Details: fluorescence 635 nm, higher = more signal
Answers are plain numbers.

# lookup: composite z-score of CN1C(=O)C2C=CC(C(O)c3ccccc3)N(N3CCCCC3)C2C1=O (stereo unspecified)
0.797

Which composite z-score value is on record for C=C(CCCC)C(=O)CC[C@@H](OC(C)=O)c1ccc(CO)o1 ?
0.337

What does the data say about its composite z-score? Entry: CC(=O)NCCCC[C@@H]1NC(=O)[C@H]2C[C@@H](C(=O)O)[C@@H](c3ccc(O)cc3)N2C1=O
0.764

Which composite z-score value is on record for CO[C@H]1O[C@H](CO)[C@@H](OC(=O)Nc2ccc(Oc3ccccc3)cc2)[C@H](OC(=O)Nc2ccc3c(c2)OCO3)[C@@H]1OC(=O)Nc1ccc2c(c1)OCO2 ?
0.863

Please give composite z-score for each item listed below.
1. COCCOC(=O)N1C(=O)[C@@]2(c3ccccc31)[C@H](C(=O)N1CCCCCCC1)[C@H]1C(=O)O[C@H](c3ccccc3)[C@H](c3ccccc3)N1[C@@H]2c1ccc(OCCO)cc1
2. C=CCOC(=O)[C@H]1[C@@H]2C(=O)O[C@@H](c3ccccc3)[C@@H](c3ccccc3)N2[C@@H](c2ccc(OCCOC(=O)[C@H]3C[C@H]4C(=O)N[C@@H](CCCCN(C)C)C(=O)N4[C@H]3c3cccc(OCCO)c3)cc2)[C@]12C(=O)Nc1ccc(I)cc12
3. CC(C)NC(=O)[C@@H]1c2ccccc2C(=O)N(C(C)C)[C@H]1c1ccc(CO)cc1
4. CCC(CC)C(O)C1C=CC2C(=O)N(c3ccccc3)C(=O)C2N1Nc1ccccc1 (stereo unspecified)
5. COCCCNC(=O)[C@@]1(CCS(=O)(=O)c2ccccc2)N=C(c2ccc(OCCCO)cc2)O[C@H]1c1ccccc1N=[N+]=[N-]
6. O=C1O[C@@H](c2ccccc2)[C@@H](c2ccccc2)N2[C@@H](c3ccccc3OCCO)[C@]3(C(=O)Nc4ccccc43)[C@@H](C(=O)O)[C@H]12
7. COc1ccc(C(O)C2C=CC3C(=O)N(C)C(=O)C3N2N(c2ccccc2)c2ccccc2)c2ccccc12 (stereo unspecified)

1. 0.992
2. 0.634
3. 0.226
4. 0.816
5. 0.839
6. 0.457
7. 0.763

* * *

Experiment: JC-1 mitochondrial potential readout, lung cancer cells – cell-based, A549, JC-1 fluorescence, basal, 24 h, 100 nL, profiling panel (AID 1138);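 also: A549 lung adenocarcinoma cells under basal conditions with no added stimulus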
Settings: higher = more signal
Measurement name: z-score
Give bare numbers.

// known answers, use as guide
Given the entry C=CCC(OC(C)=O)[C@@H]1[C@@H](N(Cc2ccc(-c3ccccc3)cc2)C(=O)Cc2ccc(F)cc2)c2cc(OCCCO)ccc2N1C(=O)c1ccc2ccccc2c1 (stereo not given in full) , report its measured z-score.
1.73

Data request, read-out z-score, for COC(=O)[C@@]1(Cc2ccccc2)[C@H]2c3cc(C(=O)N(C)C)n(CCc4c[nH]c5ccc(O)cc45)c3C[C@H]2CN1C(=O)c1ccccc1
-0.409

Which z-score reading was recorded for the molecule Cc1ccc(C2C3C(=O)CC4C(=O)N(c5ccccc5)C(=O)C4C3CN2S(=O)(=O)c2ccc(C)cc2)cc1 (stereo not given) ?
-0.112

What measured z-score goes with COC(=O)[C@@]1(Cc2ccc(OC)cc2)[C@H]2c3cc(C(=O)N4CCCC4)n(CCSCCO)c3C[C@H]2CN1C(=O)c1ccccc1 ?
0.572

Please give the measured z-score for this molecule: CCCC(=O)N(CCc1c[nH]c2ccccc12)[C@@H]1CC(C(=O)NCCO)=C[C@H](Oc2c(I)cc(CO)cc2OC)[C@H]1O
1.13

For each of the molecules below, note its z-score.
1. C=C(CCCC)/C(=C/C[C@H](OC(=O)c1ccncc1)c1ccc(OCCO)cc1)c1cc(C(=O)OC)ccc1OC
2. CC(c1ccccc1)C(O)C1C=CC2C(=O)N(C)C(=O)C2N1NC(=O)OC(C)(C)C (stereo not given)
3. CCCCN1CC=CC23O[C@@H]4/C=C\CCCOC(=O)C4[C@H]2C(=O)N(CCCO)[C@@H]3C1=O (stereo not given in full)
4. COc1ccc([C@H]2OC[C@@H]3CCC(=O)N32)cc1
5. CN(C)CCCCCCNC(=O)[C@@H]1C[C@@H]2C(=O)N3CCC[C@H]3C(=O)N2[C@@H]1c1ccc(O)cc1
6. CCCCC(O)C1C=CC2C(=O)N(C)C(=O)C2N1N1CCCCC1 (stereo not given)

1: 0.313; 2: -0.422; 3: 0.259; 4: 0.779; 5: 0.334; 6: -0.0954

Required: z-score, one value per molecule below.
1. O=C1NC(=O)C2C1C=CC(C(O)c1ccc(I)cc1)N2Nc1ccccn1 (stereo not given)
2. CS(=O)(=O)CCOC(=O)C1=CC(CCCO)=CC(c2ccc(CN3CCCC3)cc2)N(Cc2cccc(OC(F)(F)F)c2)C=C1C(=O)OCCS(C)(=O)=O (stereo not given)
3. O=C(NC1CC1)[C@@H]1c2ccccc2C(=O)N(C2Cc3ccccc3C2)[C@H]1c1ccc(CO)cc1
4. C=CC[C@]1(C(=O)N2CCOCC2)N=C(c2ccc(OCCCO)cc2)O[C@H]1c1ccccc1N=[N+]=[N-]

-0.279
3.17
1.64
-0.0671

* * *

Assay: JC-1 mitochondrial signal, unstimulated MM1S myeloma – cell-based, JC-1 fluorescence, 24 h, 100 nL compound, profiling panel (AID 1170)
Conditions: MM1S mitochondrial potential, higher = more signal
Measurement name: z-score

Tell me the measured z-score of COc1ccc(NC(=O)O[C@H]2[C@H](OC(=O)c3cc4ccccc4[nH]3)[C@@H](OC(=O)c3cc4ccccc4[nH]3)[C@@H](OC)O[C@@H]2CO)cc1 , please.
-0.117

Param item = CO[C@H]1O[C@H](CO)[C@@H](OC(=O)Nc2ccccc2-c2ccccc2)[C@H](OC(=O)Nc2ccccc2-c2ccccc2)[C@@H]1OC(=O)Nc1ccccc1-c1ccccc1 ; retrieve measured z-score.
1.33

Which z-score is reported for this compound? CN(C)C(=O)[C@]1(Cc2ccccc2)N=C(c2ccc(OCCCO)cc2)O[C@@H]1c1ccccc1N=[N+]=[N-]
-2.37

What value of z-score has been recorded for this entry: COCCOC(=O)N1C(=O)[C@@]2(c3ccccc31)[C@H](c1ccc(OCCO)cc1)N1[C@H](c3ccccc3)[C@H](c3ccccc3)OC(=O)[C@H]1[C@@H]2C(=O)N1CCc2cc(OC)c(OC)cc2C1
-1.53

Need z-score of COc1cc2c(cc1OC)CN(C(=O)[C@H]1[C@@H]3C(=O)O[C@@H](c4ccccc4)[C@@H](c4ccccc4)N3[C@@H](c3ccccc3OCCO)[C@]13C(=O)Nc1ccc(C#CCCO)cc13)CC2 , thanks.
-0.96

Quick batch: z-score for everything below.
1. COC(=O)[C@@]1(Cc2ccccc2)[C@H]2c3cc(C(=O)N4CCCC4)n(Cc4c(CO)[nH]cc(C)c4=O)c3C[C@H]2CN1C(=O)c1ccccc1
2. O=C(CS)NCCCCCNC(=O)[C@H]1C[C@H]2C(=O)NCC(=O)N2[C@H]1c1ccc(O)cc1
3. COCCOC(=O)N1C(=O)[C@@]2(c3cc(C#CC4=CCCCC4)ccc31)[C@H](c1ccc(OCCO)cc1)N1[C@H](c3ccccc3)[C@H](c3ccccc3)OC(=O)[C@H]1[C@@H]2C(=O)N1CCc2cc(OC)c(OC)cc2C1

[-0.444, -0.167, -0.935]
